- TEST TARGET: UniProtKB P05177
- Sequence (P05177 whole entry): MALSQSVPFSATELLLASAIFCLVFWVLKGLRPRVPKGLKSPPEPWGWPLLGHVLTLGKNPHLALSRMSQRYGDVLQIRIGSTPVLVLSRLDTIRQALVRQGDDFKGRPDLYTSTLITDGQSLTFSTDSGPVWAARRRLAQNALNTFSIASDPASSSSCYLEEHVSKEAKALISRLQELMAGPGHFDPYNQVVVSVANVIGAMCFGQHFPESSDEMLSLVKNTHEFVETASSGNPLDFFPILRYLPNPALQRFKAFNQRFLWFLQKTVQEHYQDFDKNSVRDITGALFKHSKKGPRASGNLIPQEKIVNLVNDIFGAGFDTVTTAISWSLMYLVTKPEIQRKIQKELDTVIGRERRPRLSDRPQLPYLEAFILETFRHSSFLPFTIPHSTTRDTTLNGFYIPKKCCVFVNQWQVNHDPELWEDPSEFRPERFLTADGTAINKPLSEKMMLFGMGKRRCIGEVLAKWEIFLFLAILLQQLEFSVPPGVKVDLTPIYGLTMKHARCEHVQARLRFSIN
EXPERIMENTAL ENDPOINT: IC50

• C=CCc1ccc2c(c1)OCO2 = 10000 nM
• O=C(OC[C@H]1O[C@@H](OC(=O)c2cc(O)c(O)c(OC(=O)c3cc(O)c(O)c(O)c3)c2)[C@H](OC(=O)c2cc(O)c(O)c(OC(=O)c3cc(O)c(O)c(O)c3)c2)[C@@H](OC(=O)c2cc(O)c(O)c(OC(=O)c3cc(O)c(O)c(O)c3)c2)[C@@H]1OC(=O)c1cc(O)c(O)c(OC(=O)c2cc(O)c(O)c(O)c2)c1)c1cc(O)c(O)c(OC(=O)c2cc(O)c(O)c(O)c2)c1 = 919 nM
• CC(N)Cc1c[nH]c2ccc(OCc3cccs3)cc12 (centres undefined) = 874 nM
• c1ccc2c(c1)Nc1ccccc1S2 = 16 nM

Data provenance: ChEMBL document CHEMBL1909046
